All values here come from the supplement of paper PMC9233669.

- System: biotinyl-Val-oxazolone
- assaySummary: self-aminoacylation, catalytic enhancement (BVO) (fold over background); higher = more active; k-Seq, kA / k0A0; sequences stand for … in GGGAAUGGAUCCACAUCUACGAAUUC…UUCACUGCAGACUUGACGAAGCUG
This sample holds only a part of the variants without activity.
Reported self-aminoacylation values are given for each entry in this list.

residues: UCACACUUCAAACAAUCGGUC [Fam1B.1 aminoacylation ribozyme variant]
subjectOfTest: biotinyl-Val-oxazolone
self-aminoacylation: 1.55

residues: AUUCACCUAGGACAUCGCGUG [Fam2.2 aminoacylation ribozyme variant]
subjectOfTest: biotinyl-Val-oxazolone
self-aminoacylation: 2.83

residues: GUUACCCUGGUCAUGGAGUGA [Fam2.1 aminoacylation ribozyme variant]
subjectOfTest: biotinyl-Val-oxazolone
self-aminoacylation: 3.36

residues: CUACUUCAAACUAGCGGUCUG [Fam1A.1 aminoacylation ribozyme variant]
subjectOfTest: biotinyl-Val-oxazolone
self-aminoacylation: 0.803

residues: AUUUACCUAGGUCAUCGCGUG [Fam2.2 aminoacylation ribozyme variant]
subjectOfTest: biotinyl-Val-oxazolone
self-aminoacylation: 5.84

residues: AUUCAGCUAGGUCAUCAGGUG [Fam2.2 aminoacylation ribozyme variant]
subjectOfTest: biotinyl-Val-oxazolone
self-aminoacylation: 2.04

residues: AUUACGCUGGUCAUCGAGUGC [Fam2.1 aminoacylation ribozyme variant]
subjectOfTest: biotinyl-Val-oxazolone
self-aminoacylation: 1.33

residues: AUCAUCCUGGUCAUCGAGUGA [Fam2.1 aminoacylation ribozyme variant]
subjectOfTest: biotinyl-Val-oxazolone
self-aminoacylation: 4.82

residues: CUACUUCAAACAAUCAUUCUG [Fam1A.1 aminoacylation ribozyme variant]
subjectOfTest: biotinyl-Val-oxazolone
self-aminoacylation: 0.577

residues: CCACAAUUCAGGCAAUCGGUC [Fam1B.1 aminoacylation ribozyme variant]
subjectOfTest: biotinyl-Val-oxazolone
self-aminoacylation: 1.42

residues: CCACACUUCGAGCAAUCGGUG [Fam1B.1 aminoacylation ribozyme variant]
subjectOfTest: biotinyl-Val-oxazolone
self-aminoacylation: 1.91

residues: CCAUACUUCCAGCAAUCGGUC [Fam1B.1 aminoacylation ribozyme variant]
subjectOfTest: biotinyl-Val-oxazolone
self-aminoacylation: 1.39

residues: AAGUUUGCUAAUAGUCCCACG [Fam3.1 aminoacylation ribozyme variant]
subjectOfTest: biotinyl-Val-oxazolone
self-aminoacylation: 0.679

residues: CUAAUACAAACAAUCGGUCUG [Fam1A.1 aminoacylation ribozyme variant]
subjectOfTest: biotinyl-Val-oxazolone
self-aminoacylation: 0.682

residues: AAGUUUGCUACUAGUCUCAAG [Fam3.1 aminoacylation ribozyme variant]
subjectOfTest: biotinyl-Val-oxazolone
self-aminoacylation: 0.818

residues: AUUACUCCGGUCAUCGAGUGA [Fam2.1 aminoacylation ribozyme variant]
subjectOfTest: biotinyl-Val-oxazolone
self-aminoacylation: 2.64

residues: CUAAUUCAAACAGUCGGUCUG [Fam1A.1 aminoacylation ribozyme variant]
subjectOfTest: biotinyl-Val-oxazolone
self-aminoacylation: 0.853

residues: CUACUUGAAACAAUCGGUCUC [Fam1A.1 aminoacylation ribozyme variant]
subjectOfTest: biotinyl-Val-oxazolone
self-aminoacylation: 0.688

residues: GUUACCAUGGUCAUCGAGUGA [Fam2.1 aminoacylation ribozyme variant]
subjectOfTest: biotinyl-Val-oxazolone
self-aminoacylation: 5.22

residues: CUACUUGAAAGAAUCGGUCUG [Fam1A.1 aminoacylation ribozyme variant]
subjectOfTest: biotinyl-Val-oxazolone
self-aminoacylation: 0.771

residues: AUUCACCUAGGUCAGCGAGUG [Fam2.2 aminoacylation ribozyme variant]
subjectOfTest: biotinyl-Val-oxazolone
self-aminoacylation: 3.34

residues: AUUGUCCUAGGUCAUCGGGUG [Fam2.2 aminoacylation ribozyme variant]
subjectOfTest: biotinyl-Val-oxazolone
self-aminoacylation: 13.6

residues: AUGCACCUAAGUCAUCGGGUG [Fam2.2 aminoacylation ribozyme variant]
subjectOfTest: biotinyl-Val-oxazolone
self-aminoacylation: 4.84

residues: GUACUUCAGACAAUCGGUCUG [Fam1A.1 aminoacylation ribozyme variant]
subjectOfTest: biotinyl-Val-oxazolone
self-aminoacylation: 1.06

residues: AUUCACCUAGGUGGUCGGGUG [Fam2.2 aminoacylation ribozyme variant]
subjectOfTest: biotinyl-Val-oxazolone
self-aminoacylation: 2.77

residues: AUUCAGCUAGGGCAUCGGGUG [Fam2.2 aminoacylation ribozyme variant]
subjectOfTest: biotinyl-Val-oxazolone
self-aminoacylation: 4.65

residues: AUUCACCAAUGUCAUCGGGUG [Fam2.2 aminoacylation ribozyme variant]
subjectOfTest: biotinyl-Val-oxazolone
self-aminoacylation: 5.57

residues: UCACAGUUCAAGCAAUCGGUC [Fam1B.1 aminoacylation ribozyme variant]
subjectOfTest: biotinyl-Val-oxazolone
self-aminoacylation: 0.999

residues: AGUACCCUGGUCCUCGAGUGA [Fam2.1 aminoacylation ribozyme variant]
subjectOfTest: biotinyl-Val-oxazolone
self-aminoacylation: 2.81

residues: UAGUUUGCCAAUAGUCGCAAG [Fam3.1 aminoacylation ribozyme variant]
subjectOfTest: biotinyl-Val-oxazolone
self-aminoacylation: 1.61

residues: AUUCUCCUAGGUCAUCGGGUA [Fam2.2 aminoacylation ribozyme variant]
subjectOfTest: biotinyl-Val-oxazolone
self-aminoacylation: 4.84

residues: GUGACCCUGGUCAUCGAGUGA [Fam2.1 aminoacylation ribozyme variant]
subjectOfTest: biotinyl-Val-oxazolone
self-aminoacylation: 7.42

residues: AUACUUCAAACAAUAGGUCUG [Fam1A.1 aminoacylation ribozyme variant]
subjectOfTest: biotinyl-Val-oxazolone
self-aminoacylation: 0.923

residues: CCAGACUUCAAGCAAUCCGUC [Fam1B.1 aminoacylation ribozyme variant]
subjectOfTest: biotinyl-Val-oxazolone
self-aminoacylation: 1.58

residues: CUACUUCAAACAGUCGUUCUG [Fam1A.1 aminoacylation ribozyme variant]
subjectOfTest: biotinyl-Val-oxazolone
self-aminoacylation: 0.611

###

- Test system: biotinyl-Phe-oxazolone
- assaySummary: self-aminoacylation, catalytic enhancement (BFO) (fold over background); higher = more active; k-Seq, kA / k0A0; sequences stand for … in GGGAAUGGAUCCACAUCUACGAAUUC…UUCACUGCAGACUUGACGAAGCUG
Variants at the floor of the assay were thinned out.
Label true when self-aminoacylation is at or above 9; anything below gets false.

residues: CCACACUUCAAGCAGGCGGUC [Fam1B.1 aminoacylation ribozyme variant]
category: false

residues: ACUCACCGAGGUCAUCGGGUG [Fam2.2 aminoacylation ribozyme variant]
category: true

residues: ACACACUUCAAGCAUUCGGUC [Fam1B.1 aminoacylation ribozyme variant]
category: false

residues: AAGUUUGCUAACAGUCUCAAG [Fam3.1 aminoacylation ribozyme variant]
category: false

residues: GUUACCCUGGUGAUCGAGUGA [Fam2.1 aminoacylation ribozyme variant]
category: true

residues: AUUUCCCUGGUGAUCGAGUGA [Fam2.1 aminoacylation ribozyme variant]
category: true

residues: AUUCACCUAAGUCAUCGGGAG [Fam2.2 aminoacylation ribozyme variant]
category: false

residues: AAGUCUGCUAAUAGUCGCCAG [Fam3.1 aminoacylation ribozyme variant]
category: false

residues: ACACACUUCAAGCAAUCUGUC [Fam1B.1 aminoacylation ribozyme variant]
category: false

residues: AUUCCCCUUGUCAUCGAGUGA [Fam2.1 aminoacylation ribozyme variant]
category: true

residues: AAGUUUGCUAAUACUCGCAAA [Fam3.1 aminoacylation ribozyme variant]
category: false

residues: GUUCACCUAGGACAUCGGGUG [Fam2.2 aminoacylation ribozyme variant]
category: true

residues: AUUACCCUGGUUAACGAGUGA [Fam2.1 aminoacylation ribozyme variant]
category: true

residues: AUUCCCCUCGGUCAUCGGGUG [Fam2.2 aminoacylation ribozyme variant]
category: true

residues: AGUACCCUGAUCAUCGAGUGA [Fam2.1 aminoacylation ribozyme variant]
category: true

residues: AUUCACCUAGGCUAUCGGGUG [Fam2.2 aminoacylation ribozyme variant]
category: true

residues: AAGUUAGCUAAUAGUCGCAUG [Fam3.1 aminoacylation ribozyme variant]
category: false

residues: AUUAACCUGGUCAUCGCGUGA [Fam2.1 aminoacylation ribozyme variant]
category: true

residues: AAUUUUGCUAAUAGUCUCAAG [Fam3.1 aminoacylation ribozyme variant]
category: false

residues: CUACUUCGACCAAUCGGUCUG [Fam1A.1 aminoacylation ribozyme variant]
category: false

residues: CUACUUCAAACGACCGGUCUG [Fam1A.1 aminoacylation ribozyme variant]
category: false

residues: UUACUUCAAACCAUCGGUCUG [Fam1A.1 aminoacylation ribozyme variant]
category: false

residues: CCACACUUCAAUCAAGCGGUC [Fam1B.1 aminoacylation ribozyme variant]
category: false

residues: AUCGACCUAGGUCAUCGGGUG [Fam2.2 aminoacylation ribozyme variant]
category: false

residues: CAACACCUCAAGCAAUCGGUC [Fam1B.1 aminoacylation ribozyme variant]
category: false

residues: AUUACCCCCGUCAUCGAGUGA [Fam2.1 aminoacylation ribozyme variant]
category: true

residues: CUACUUCAAACAAUCGACCUG [Fam1A.1 aminoacylation ribozyme variant]
category: false

residues: AAUCACCUAGGUCCUCGGGUG [Fam2.2 aminoacylation ribozyme variant]
category: true

residues: AUUACCCGGGUCAUCGAGUAA [Fam2.1 aminoacylation ribozyme variant]
category: false

residues: AUUCACCUAAGUCAUCGGGCG [Fam2.2 aminoacylation ribozyme variant]
category: true

residues: AUUGACCUAGGUCAUCGGGUU [Fam2.2 aminoacylation ribozyme variant]
category: true

residues: GAGUCUGCUAAUAGUCGCAAG [Fam3.1 aminoacylation ribozyme variant]
category: true

residues: CUGCUUCAAACAAUCAGUCUG [Fam1A.1 aminoacylation ribozyme variant]
category: true

residues: AUUACCAUGGUUAUCGAGUGA [Fam2.1 aminoacylation ribozyme variant]
category: true

residues: AUUCACCCAGGUCAUCGGAUG [Fam2.2 aminoacylation ribozyme variant]
category: false
